Study the reported IC50 values for human ACC2 (Homo sapiens (Human), UniProt O00763) given below; they originate from different publications.
Threshold 800 nM. IC50 below it: Criterion met. IC50 at it or above: Criterion not met.

Observe how each entry below is paired with its result.
# compound, class
measured = [
    ("CCOc1ccc(N2CCC(c3ccc(C(C)C(=O)NC)cc3)CC2)cc1 (centres unmarked)", "Criterion met"),
    ("C[C@H](NC(=O)C1(C#N)CC1)c1ccc(CN2CCc3cc(OCC4CC4(F)F)ccc3C2)cc1 (some centres unmarked)", "Criterion met"),
    ("CNc1cccc(N2CC[C@@H](Oc3ccc([C@H](C)NC(C)=O)cc3)C2)n1", "Criterion not met"),
    ("CC(=O)N[C@@H](C)c1ccc(C2CN(c3ccnc(N(C)CC(F)F)n3)C2)cc1", "Criterion not met"),
    ("COCC(=O)Nc1nc(C)c(C(=O)N[C@@H](C)c2ccc(OC3CCN(c4ccnc(OCC(F)F)c4)C3)cc2)s1 (some centres unmarked)", "Criterion met"),
]

Lookup: Please determine if `CCN(C)C(=O)Cc1ccc(C2CCN(c3ccnc(N(C)C4CCCC4)n3)CC2)cc1` is below 800 nM in terms of IC50.
Found: Criterion not met

Lookup: Proceed to CCOc1ccc(N2CCC(c3ccc(C(C)C(=O)Nc4ccccc4)cc3)CC2)cc1 (centres unmarked)
Found: Criterion met

Lookup: Proceed to `C[C@H](NC(=O)C1CC1)c1ccc(CN2CCc3cc(OCCC(F)(F)F)ccc3C2)cc1`
Found: Criterion met

Lookup: Proceed to `CCCOc1ccc(C#Cc2ccc(C(C)(C)C(=O)NCC)cc2)cc1`
Found: Criterion not met

Lookup: Proceed to COc1c(OCc2ccccc2)ccc2c1CCN(Cc1ccc(C(C)NC(C)=O)cc1)C2 (centres unmarked)
Found: Criterion met

Lookup: Proceed to CCNC(=O)C(C)c1ccc(C#Cc2ccnc(Oc3ccccc3)c2)cc1 (centres unmarked)
Found: Criterion met

Lookup: Proceed to CC(=O)NC(C)Cc1ccc(C2CN(c3ccc(OC4CC4)cc3)C2)cc1 (centres unmarked)
Found: Criterion met

Lookup: Proceed to `CCOc1ccc(C#Cc2ccc(C[C@H](C)NC(C)=O)cc2)cn1`
Found: Criterion met

Lookup: Proceed to `CC(=O)NC(C)(C)c1ccc(C#Cc2ccnc(OC(C)C)c2)cc1`
Found: Criterion not met

Lookup: Proceed to CC(=O)Nc1cc(C(=O)N[C@@H](C)c2ccc(OC3CCN(c4ccnc(OC(C)C)c4)C3)cc2)ccn1 (some centres unmarked)
Found: Criterion met

Lookup: Proceed to CCNC(=O)C(C)c1ccc(C2CCN(c3ccc(OCC4CC4)cc3OC)CC2)cc1 (centres unmarked)
Found: Criterion met
